Test system: serum lipids and serum lipid hydroperoxide
Assay: Pharmacological test method A for anti-hyperlipidemic activity (serum lipids, 2 weeks feeding)
Format: in vivo, male Wistar strain rats
Conditions: 1% in hyperlipidemic diet, 2 weeks
Description: Male Wistar strain rats (100±lg, each 10 rats were formed into a group) were used as test animals. […] Then, TC, HDL-C, TG, PL, and LPO in the serum were measured in the manner that will be described below. A TC kit-K (supplied by Nippon Shoji Kaisha, Ltd.) was used. […] The produced red quinone coloring matter is measured by colorimetry for absorbance at 500 nm using a spectrophotometer, thereby determining the TC: […]
MEASURE: LPO in serum (nmol/mL)

• C=C(CCC(C)C1CCC2(C)C3CCC4C(C)(C)C(OC(=O)C=Cc5cccc(N)c5)CCC45CC35CCC12C)C(C)C (stereo not drawn) = 2.16
• CCOc1cc(C(=O)OC2CCC34CC35CCC3(C)C(C(C)CCC(C)=C(C)C)CCC3(C)C5CCC4C2(C)C)ccc1O (stereo not drawn) [Example 62, cyclobranyl-3-ethoxy-4-hydroxybenzoate] = 1.94
• CC(C)=CCCC(C)C1CCC2(C)C3CCC4C(C)(C)C(OC(=O)c5ccc(O)c(O)c5)CCC45CC35CCC12C (stereo not drawn) [Example 27, cycloartenyl-3,4-dihydroxybenzoate] = 1.99
• C=C(CCC(C)C1CCC2(C)C3CCC4C(C)(C)C(OC(=O)c5cccc(N)c5)CCC45CC35CCC12C)C(C)C (stereo not drawn) = 1.68
• COc1ccc(C(=O)OC2CCC34CC35CCC3(C)C(C(C)CCC=C(C)C)CCC3(C)C5CCC4C2(C)C)cc1 (stereo not drawn) [Example 14, cycloartenyl-p-methoxybenzoate] = 1.81
• CCCCC/C=C\C/C=C\CCCCCCCC(=O)OC1CCC23CC24CCC2(C)C(C(C)CCC=C(C)C)CCC2(C)C4CCC3C1(C)C (stereo not drawn) [Example 25, cycloartenyl linolate] = 1.67
• CC(C)=CCCC(C)C1CCC2(C)C3CCC4C(C)(C)C(OC(=O)c5ccccc5O)CCC45CC35CCC12C (stereo not drawn) [Example 8, cycloartenyl-o-hydroxybenzoate] = 2.01
• COc1cc(C(=O)OC2CCC34CC35CCC3(C)C(C(C)CCC(C)=C(C)C)CCC3(C)C5CCC4C2(C)C)ccc1O (stereo not drawn) [Example 37, cyclobranyl-4-hydroxy-3-methoxybenzoate] = 1.91
• CC(C)=C(C)CCC(C)C1CCC2(C)C3CCC4C(C)(C)C(OC(=O)c5cccc(N)c5)CCC45CC35CCC12C (stereo not drawn) [Example 49, cyclobranyl-m-aminobenzoate] = 2.02
• COc1cc(C(=O)OC2CCC34CC35CCC3(C)C(C(C)CCC=C(C)C)CCC3(C)C5CCC4C2(C)C)ccc1O (stereo not drawn) [Example 29, cycloartenyl-4-hydroxy-3-methoxybenzoate] = 1.95
• CCCOc1cc(C=CC(=O)OC2CCC34CC35CCC3(C)C(C(C)CCC=C(C)C)CCC3(C)C5CCC4C2(C)C)ccc1O (stereo not drawn) = 2.09
• CC(C)=CCCC(C)C1CCC2(C)C3CCC4C(C)(C)C(OC(=O)c5ccc(N)cc5)CCC45CC35CCC12C (stereo not drawn) [Example 19, cycloartenyl-p-aminobenzoate] = 1.63
• C=C(CCC(C)C1CCC2(C)C3CCC4C(C)(C)C(OC(=O)C=Cc5ccc(O)c(OC)c5)CCC45CC35CCC12C)C(C)C (stereo not drawn) = 1.89
• C=C(CCC(C)C1CCC2(C)C3CCC4C(C)(C)C(OC(=O)c5ccc(O)c(OC)c5)CCC45CC35CCC12C)C(C)C (stereo not drawn) = 2.06
• CC(C)=C(C)CCC(C)C1CCC2(C)C3CCC4C(C)(C)C(OC(=O)c5ccccc5O)CCC45CC35CCC12C (stereo not drawn) [Example 41, cyclobranyl-o-hydroxybenzoate] = 2.01
• CC(C)=CCCC(C)C1CCC2(C)C3CCC4C(C)(C)C(OC(=O)c5cccnc5)CCC45CC35CCC12C (stereo not drawn) [Example 24, cycloartenyl nicotinate] = 1.93
• CC(C)=CCCC(C)C1CCC2(C)C3CCC4C(C)(C)C(OC(=O)c5cccc(O)c5)CCC45CC35CCC12C (stereo not drawn) [Example 12, cycloartenyl-m-hydroxybenzoate] = 2.03
• CC(C)=C(C)CCC(C)C1CCC2(C)C3CCC4C(C)(C)C(OC(=O)c5cccnc5)CCC45CC35CCC12C (stereo not drawn) [Example 50, cyclobranylnicotinate] = 1.87
• CCOc1cc(C(=O)OC2CCC34CC35CCC3(C)C(C(C)CCC=C(C)C)CCC3(C)C5CCC4C2(C)C)ccc1O (stereo not drawn) [Example 60, cycloartenyl-3-ethoxy-4-hydroxybenzoate] = 1.98
• CC(C)=CCCC(C)C1CCC2(C)C3CCC4C(C)(C)C(OC(=O)c5ccc(O)cc5)CCC45CC35CCC12C (stereo not drawn) [Example 10, cycloartenyl-p-hydroxybenzoate] = 1.73
• COc1cc(C=CC(=O)OC2CCC34CC35CCC3(C)C(C(C)CCC=C(C)C)CCC3(C)C5CCC4C2(C)C)ccc1O (stereo not drawn) = 1.51
